- Test system: HL-60
- assayMethodText: NCI tumour cell line growth inhibition, 48 h
Activity calls are given as the source filed them. Rule as the data show it: active = GI50 up to about 1.1 µM and inactive = higher. Non-standard residues stand in square brackets, D forms with d. Residues, ends and D or L forms follow the SMILES beside them. *: point of attachment. NMeF = CN[CH](Cc1ccccc1)C(=O)O; NMeV = CN[CH](C(=O)O)C(C)C; Boc = CC(C)(C)OC(=O)*
Outcomes: 1 for active, 0 for inactive

compound	classAssignment
NNC(=S)N/N=C(\c1nc2ccc(Cl)cc2nc1O)C(O)c1ccc(Cl)cc1Cl (centres undefined)	0
CC1=C(C(=O)Nc2cccc(C(F)(F)F)c2)C(c2ccccc2F)C(C(=O)Nc2cccc(C(F)(F)F)c2)=C(C)N1	0
Cc1ccc(S(=O)(=O)NNC(=O)c2cc(C)ccc2NC(=O)C23CC4CC(CC(C4)C2)C3)cc1	0
CNC(=O)OCc1nc(SC)n(C)c1CO	0
C/C(=N/NC(=S)N(C)CCc1ccccn1)c1cnccn1	1
COc1ccc(OC)c(NC(=O)c2c(Cl)c(Cl)c(Cl)c(Cl)c2-c2nc3ccccc3[nH]2)c1	0
CC(C)c1cc(C(C)C)c(S(=O)(=O)N=[N+]=[N-])c(C(C)C)c1	0
CC(C)C(NC(=O)OC(C)(C)C)C(=O)N(C)C(Cc1ccccc1)C(=O)N(C)C(C(=O)O)C(C)C (stereo not drawn) (Boc-Val-[NMeF]-[NMeV]-OH; configuration not given here)	0
CCOC(=O)/C=C(\C)c1ccc(C)cc1C	0
